From: ChEMBL document CHEMBL3044874

Tested on: Rattus norvegicus
experiment summary: Anticonvulsant activity in Rattus norvegicus Wistar (rat) assessed as protection against maximal electroshock-induced seizure at 30 mg/kg, po measured at 1 hr
Type: functional, organism-based
Design: dose 30 mg/kg
Calls of active or inactive are those of the source. The rule behind the calls is not given here.
recorded metric: Activity

molecule | assayed target | result
OC(/C(=N\Cc1cccnc1)c1ccccc1)c1ccccc1 (configuration not stated) | Rattus norvegicus | Active
COc1cc(/C=N/Cc2cccnc2)ccc1O | Rattus norvegicus | Active
Clc1ccc(/C=N/Cc2cccnc2)cc1 | Rattus norvegicus | inactive
C/C(=N\Cc1cccnc1)c1cccc(N)c1 | Rattus norvegicus | Active
COc1cc(/C=N/Cc2cccnc2)cc(OC)c1OC | Rattus norvegicus | inactive
Clc1ccccc1/C=N/Cc1cccnc1 | Rattus norvegicus | Active

Exam item: Requested field: Activity. Item: `c1ccc(C(=NCc2cccnc2)c2ccccc2)cc1`
Marked response: Active
